- TESTED_SYSTEM: human BACE1(1-460):Fc (Homo sapiens)
- Construct: made in house; host or cells: HEK293 cells, transient transfection, conditioned medium
- Sequence (P56817 22-460): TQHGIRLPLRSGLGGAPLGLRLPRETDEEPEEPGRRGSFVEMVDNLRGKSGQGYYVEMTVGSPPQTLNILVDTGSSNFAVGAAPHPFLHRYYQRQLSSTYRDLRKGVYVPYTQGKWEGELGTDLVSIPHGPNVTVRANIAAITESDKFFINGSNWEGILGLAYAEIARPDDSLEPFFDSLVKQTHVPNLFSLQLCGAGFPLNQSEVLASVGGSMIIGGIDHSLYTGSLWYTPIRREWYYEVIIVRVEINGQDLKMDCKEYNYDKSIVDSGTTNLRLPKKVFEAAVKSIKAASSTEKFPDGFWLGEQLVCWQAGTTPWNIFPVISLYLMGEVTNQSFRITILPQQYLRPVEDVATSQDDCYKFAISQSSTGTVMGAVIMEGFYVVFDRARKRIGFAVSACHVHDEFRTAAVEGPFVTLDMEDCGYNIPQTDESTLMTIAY
- TEST_NAME: BACE1 mcaFRET Assay
- Assay type: biochemical
- EXPERIMENTAL_CONDITIONS: FRET substrate 15 micromolar, pH 4.6, 16 to 24 hours at room temperature
- Protocol: For in vitro enzymatic and cellular assays, test compounds are prepared in DMSO to make up a 10 millimolar stock solution. […] Serial dilutions of test compounds are prepared as described above. […] The relative fluorescence unit (RFU) of the mixture at time 0 is recorded at excitation wavelength 330 nm and emission wavelength 400 nm, after brief mixing on a plate shaker. […] The RFU at the end of incubation is recorded with the same excitation and emission setting. […]
Counter-ions that a name gives are not always drawn.
ENDPOINT_NAME: IC50 (µM)

[[record]]
molecule = "CC(=O)N[C@@H](Cc1cc(F)cc(F)c1)[C@H](O)[C@H]1CC[C@@H](OCCC(C)C)CN1 [Example 55, hydrochloride]"
tested_system = "human BACE1(1-460):Fc (Homo sapiens)"
obs_value = 6.9

[[record]]
molecule = "CC(=O)NC(Cc1cc(F)cc(F)c1)C(O)C1CCC(OCc2ccccc2)CN1 (centres unmarked) [Example 19, hydrochloride]"
tested_system = "human BACE1(1-460):Fc (Homo sapiens)"
obs_value = 13.1

[[record]]
molecule = "CC(=O)N[C@@H](Cc1cc(F)cc(F)c1)[C@H](O)[C@H]1CC[C@@H](OCC(C)C)CN1 [Example 58, hydrochloride]"
tested_system = "human BACE1(1-460):Fc (Homo sapiens)"
obs_value = 6.8


[P] CCC(C)Nc1cc(C(=O)NC(Cc2ccccc2)C(O)C2NCCN(C)C2=O)cc(N(C)S(C)(=O)=O)n1 (centres unmarked) [Example 3, hydrochloride]
[Q] CCC(C)Nc1cc(C(=O)N[C@@H](Cc2ccccc2)[C@@H](O)[C@H]2CN(C(C)=O)CCN2)cc(N(C)S(C)(=O)=O)n1 (some centres unmarked) [Example 7, hydrochloride]
Query: Which of the two gives a bigger number for IC50: P or Q ? Kindly state the label of the option you pick.
Response: Q
